All figures here come from the NIST ThermoML archive (doi:10.1021/je600573w).

Listed here are molecules together with their documented molar heat capacity at constant pressure.
experiment: molar heat capacity at constant pressure; settings: 351.15 K; 101.33 kPa; Liquid; Small sample (50 mg) DSC
Measure: molar heat capacity at constant pressure (J/K/mol)

INSERT INTO assay_data (smiles_record, numeric_value) VALUES
  ('Brc1ccccc1', 166.69),
  ('Clc1cccc(Cl)c1Cl', 205.91),
  ('Clc1ccc(Cl)c(Cl)c1Cl', 229.16),
  ('Brc1cccc(Br)c1', 189.47),
  ('Clc1ccc(Cl)cc1', 182.71);

----------
assay: molar heat capacity at constant pressure; details: 311.15 K; 101.33 kPa; Liquid; Small sample (50 mg) DSC
Numbers after ± are expanded uncertainties.
Listed here are molecules together with their documented molar heat capacity at constant pressure.
Measure: molar heat capacity at constant pressure

INSERT INTO results (molecule, measure, result) VALUES
  ('Brc1ccccc1 [bromobenzene]', 'molar heat capacity at constant pressure', '157.38 ± 2.4 J/K/mol'),
  ('Brc1ccccc1Br [1,2-dibromobenzene]', 'molar heat capacity at constant pressure', '182.38 ± 2.8 J/K/mol'),
  ('Clc1ccccc1 [chlorobenzene]', 'molar heat capacity at constant pressure', '153.97 ± 2.4 J/K/mol'),
  ('Clc1ccc(Cl)c(Cl)c1 [1,2,4-trichlorobenzene]', 'molar heat capacity at constant pressure', '197.35 ± 3.1 J/K/mol');

----------
Listed here are compounds together with their documented molar heat capacity at constant pressure.
experiment: molar heat capacity at constant pressure; settings: 341.15 K; 101.33 kPa; Liquid; Small sample (50 mg) DSC
Measure: molar heat capacity at constant pressure (J/K/mol)

INSERT INTO assay_data (smiles_record, units_of_measure, numeric_value) VALUES
  ('Brc1ccccc1', 'J/K/mol', 164.36),
  ('Clc1ccc(Cl)cc1', 'J/K/mol', 180.28),
  ('Clc1cccc(Br)c1', 'J/K/mol', 183.36),
  ('Clc1ccccc1', 'J/K/mol', 161.35),
  ('Clc1ccc(Cl)c(Cl)c1Cl', 'J/K/mol', 227.46),
  ('Clc1cccc(Cl)c1Cl', 'J/K/mol', 204),
  ('Clc1ccc(Cl)c(Cl)c1', 'J/K/mol', 203.09),
  ('Brc1cccc(Br)c1', 'J/K/mol', 187.49);

----------
Listed here are compounds together with their documented molar heat capacity at constant pressure.
assay: molar heat capacity at constant pressure; details: 339.15 K; 101.33 kPa; Liquid; Small sample (50 mg) DSC
Measure: molar heat capacity at constant pressure (J/K/mol)

INSERT INTO measurements (smiles_record, numeric_value) VALUES
  ('Clc1cccc(Cl)c1Cl', 203.62),
  ('Clc1ccccc1Br', 183.62),
  ('Brc1ccccc1Br', 188.03),
  ('Clc1ccccc1Cl', 180.07);
